For each record, write down the corresponding pEC50.
System: HCV 1b genotype replicon
ASSAY_EXPLANATION: HCV replicon assay (qRT-PCR or luciferase), genotype 1b
Assay type: cell-based
CONDITION: Hepatitis C virus, read-out: Genotype-1b replicon EC50 Range
pEC50: −log10 of the molar value.

Recorded pEC50, per entry:
- MOLECULE: "COC(=O)N[C@@H](C(=O)N1CCC[C@H]1c1ncc(C#Cc2ccc(-c3cnc([C@@H]4CCCN4C(=O)[C@H](NC(=O)OC)c4ccccc4)[nH]3)cc2)[nH]1)c1ccccc1"
  pEC50: "> 9.00"
- MOLECULE: "COC(=O)N[C@@H](C(=O)N1CCC[C@H]1c1nc(C2=CCC(c3ccc(-c4cnc([C@@H]5CCCN5C(=O)[C@H](NC(=O)OC)c5ccccc5)[nH]4)cc3)CC2)c[nH]1)c1ccccc1 (stereo partly drawn)"
  pEC50: "> 9.00"

query: Give pEC50 for COC(=O)N[C@@H](C(=O)N1CCC[C@H]1c1ncc(CCc2ccc(-c3cnc([C@@H]4CCCN4C(=O)[C@H](NC(=O)OC)c4ccccc4)[nH]3)cc2)[nH]1)c1ccccc1
result: > 9.00
